# assayed system: Ribonuclease pancreatic (Bos taurus)
# Sequence (P61823 whole entry): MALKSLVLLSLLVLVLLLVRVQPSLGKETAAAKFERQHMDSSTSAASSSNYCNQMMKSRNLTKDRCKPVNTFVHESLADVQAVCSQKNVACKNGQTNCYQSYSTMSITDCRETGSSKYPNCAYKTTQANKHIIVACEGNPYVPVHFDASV
# test description: Reversible competitive inhibition of bovine pancreatic RNase A using 2',3'-cCMP as substrate by Lineweaver-Burk plot analysis
Rule: Ki below 100 µM gives class 1. Equal to or above 100 µM gives class 0.

{"smiles code": "COC(=O)CS(=O)(=O)C[C@H]1O[C@@H](n2cc(C)c(=O)[nH]c2=O)C[C@@H]1S(=O)(=O)CC(=O)OC", "answer label": "class 0"}
{"smiles code": "Cc1cn([C@H]2C[C@H](O)[C@@H](CS(=O)(=O)CC(=O)O)O2)c(=O)[nH]c1=O", "answer label": "class 1"}
{"smiles code": "Cc1cn([C@H]2C[C@H](S(=O)(=O)CC(=O)O)[C@@H](CO)O2)c(=O)[nH]c1=O", "answer label": "class 1"}
{"smiles code": "Cc1cn([C@H]2C[C@@H](SCC(=O)O)[C@@H](CSCC(=O)O)O2)c(=O)[nH]c1=O", "answer label": "class 0"}
{"smiles code": "Cc1cn([C@H]2C[C@H](SCC(=O)O)[C@@H](CO)O2)c(=O)[nH]c1=O", "answer label": "class 0"}
{"smiles code": "COC(=O)CS(=O)(=O)C[C@H]1O[C@@H](n2cc(C)c(=O)[nH]c2=O)C[C@@H]1O", "answer label": "class 0"}

====

Reported values of inhibition for individual entries
# assayed system: Ribonuclease pancreatic (Bos taurus)
# test description: Inhibition of bovine pancreatic RNase A assessed as degradation of tRNA at 0.35 mM incubated for 2 hrs prior to tRNA addition measured after 30 mins by precipitation assay

{"smiles code": "Cc1cn([C@H]2C[C@H](SCC(=O)O)[C@@H](CO)O2)c(=O)[nH]c1=O", "inhibition (%)": 17}
{"smiles code": "Cc1cn([C@H]2C[C@H](S(=O)(=O)CC(=O)O)[C@@H](CO)O2)c(=O)[nH]c1=O", "inhibition (%)": 25}
{"smiles code": "COC(=O)CS[C@H]1C[C@H](n2cc(C)c(=O)[nH]c2=O)O[C@@H]1CO", "inhibition (%)": 3}
{"smiles code": "Cc1cn([C@H]2C[C@H](OCC(=O)O)[C@@H](CO)O2)c(=O)[nH]c1=O", "inhibition (%)": 13}
{"smiles code": "COC(=O)CS(=O)(=O)C[C@H]1O[C@@H](n2cc(C)c(=O)[nH]c2=O)C[C@H]1S(=O)(=O)CC(=O)OC", "inhibition (%)": 12}
{"smiles code": "COC(=O)CS(=O)(=O)[C@H]1C[C@H](n2cc(C)c(=O)[nH]c2=O)O[C@@H]1CO", "inhibition (%)": 18}
{"smiles code": "Cc1cn([C@H]2C[C@@H](S(=O)(=O)CC(=O)O)[C@@H](CS(=O)(=O)CC(=O)O)O2)c(=O)[nH]c1=O", "inhibition (%)": 33}
{"smiles code": "Cc1cn([C@H]2C[C@@H](SCC(=O)O)[C@@H](CSCC(=O)O)O2)c(=O)[nH]c1=O", "inhibition (%)": 16}

====

# assayed system: Ribonuclease pancreatic (Bos taurus)
# test description: Inhibition of bovine pancreatic RNase A assessed as degradation of tRNA at 0.35 mM incubated for 2 hrs prior to tRNA addition measured after 30 mins by precipitation assay
Rule: inhibition under 20% gives no (0), otherwise yes (1).

{"smiles code": "Cc1cn([C@H]2C[C@H](S(=O)(=O)CC(=O)O)[C@@H](CS(=O)(=O)CC(=O)O)O2)c(=O)[nH]c1=O", "assayed system": "Ribonuclease pancreatic (Bos taurus)", "answer label": "yes (1)"}
{"smiles code": "CCOC(=O)CN[C@H]1C[C@H](n2cc(C)c(=O)[nH]c2=O)O[C@@H]1CO", "assayed system": "Ribonuclease pancreatic (Bos taurus)", "answer label": "no (0)"}
{"smiles code": "COC(=O)CS(=O)(=O)C[C@H]1O[C@@H](n2cc(C)c(=O)[nH]c2=O)C[C@@H]1O", "assayed system": "Ribonuclease pancreatic (Bos taurus)", "answer label": "no (0)"}
{"smiles code": "Cc1cn([C@H]2C[C@H](SCC(=O)O)[C@@H](CSCC(=O)O)O2)c(=O)[nH]c1=O", "assayed system": "Ribonuclease pancreatic (Bos taurus)", "answer label": "no (0)"}
{"smiles code": "COC(=O)CS(=O)(=O)C[C@H]1O[C@@H](n2cc(C)c(=O)[nH]c2=O)C[C@@H]1S(=O)(=O)CC(=O)OC", "assayed system": "Ribonuclease pancreatic (Bos taurus)", "answer label": "no (0)"}
{"smiles code": "Cc1cn([C@H]2C[C@H](O)[C@@H](CS(=O)(=O)CC(=O)O)O2)c(=O)[nH]c1=O", "assayed system": "Ribonuclease pancreatic (Bos taurus)", "answer label": "yes (1)"}
{"smiles code": "COC(=O)CSC[C@H]1O[C@@H](n2cc(C)c(=O)[nH]c2=O)C[C@H]1SCC(=O)OC", "assayed system": "Ribonuclease pancreatic (Bos taurus)", "answer label": "no (0)"}
{"smiles code": "Cc1cn([C@H]2C[C@H](NCC(=O)O)[C@@H](CO)O2)c(=O)[nH]c1=O", "assayed system": "Ribonuclease pancreatic (Bos taurus)", "answer label": "no (0)"}

Source listed as ChEMBL document CHEMBL2413053.
